B1: library; numbered along this chain (parent)
chain: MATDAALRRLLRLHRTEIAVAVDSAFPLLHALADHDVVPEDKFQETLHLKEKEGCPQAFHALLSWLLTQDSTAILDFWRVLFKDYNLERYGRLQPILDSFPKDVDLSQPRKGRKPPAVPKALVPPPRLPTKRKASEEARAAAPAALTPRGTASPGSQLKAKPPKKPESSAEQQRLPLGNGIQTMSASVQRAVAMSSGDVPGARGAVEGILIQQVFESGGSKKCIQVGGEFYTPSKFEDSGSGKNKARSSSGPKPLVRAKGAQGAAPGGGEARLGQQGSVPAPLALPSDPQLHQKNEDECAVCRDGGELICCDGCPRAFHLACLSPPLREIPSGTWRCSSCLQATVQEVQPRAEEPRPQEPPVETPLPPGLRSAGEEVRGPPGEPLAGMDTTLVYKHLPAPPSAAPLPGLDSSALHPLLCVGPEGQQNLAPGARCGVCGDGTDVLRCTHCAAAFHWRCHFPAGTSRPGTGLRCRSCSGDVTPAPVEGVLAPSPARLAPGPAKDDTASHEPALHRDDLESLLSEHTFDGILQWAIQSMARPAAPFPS

- Variants of: B1
- test_summary: AIRE transcriptional activation functional score (insulin promoter-GFP; nonsense median 0, synonymous median 1) (normalised score); higher = higher AIRE activity (more reporter activation)
- assay_context: with insulin promoter-GFP reporter in HEK293
AIRE transcriptional activation functional score vs 0.9: at or above is class 1, below is class 0.

Decide: is the reported value of AIRE transcriptional activation functional score for V22A equal to or greater than 0.9?
class 0

Decide: is the reported value of AIRE transcriptional activation functional score for W65N equal to or greater than 0.9?
class 0

Decide: is the reported value of AIRE transcriptional activation functional score for D503K equal to or greater than 0.9?
class 0

Decide: is the reported value of AIRE transcriptional activation functional score for G197N equal to or greater than 0.9?
class 1

Decide: is the reported value of AIRE transcriptional activation functional score for P119R equal to or greater than 0.9?
class 0

Decide: is the reported value of AIRE transcriptional activation functional score for P286W equal to or greater than 0.9?
class 1

Decide: is the reported value of AIRE transcriptional activation functional score for T147H equal to or greater than 0.9?
class 1
